- System: CCRIS mutagenicity, Ames/micronucleus/aberration tests
- experimental-protocol: CCRIS mutagenicity studies
- assay-setup: Test System: AMES SALMONELLA TYPHIMURIUM; Strain/Indicator: TA98; Metabolic Activation: NONE; Method: STANDARD PLATE
Activity calls are given as the source filed them. How the calls were made is not given here.

smiles-record	mutagenic call
O=C(/C=C/c1ccc([N+](=O)[O-])cc1)c1ccccc1	inactive; negative
O=c1cc(CO)occ1O	active; positive
Nc1snc2ccc([N+](=O)[O-])cc12	active; positive
O=C(c1ccccc1)[C@@H]1O[C@@H]1c1ccc(Br)cc1	inactive; negative
O[C@@H]([C@H](O)[C@H](O)CBr)[C@H](O)CBr	inactive; negative
Cc1cc2ncccc2c2nc(N)n(C)c12	inactive; negative
NCCNCCNCCNCCN	inactive; negative
CCCC[C@@H](C)[C@@H](OC(=O)C[C@@H](CC(=O)O)C(=O)O)[C@H](C[C@@H](C)CCCCCC[C@@H](O)C[C@H](O)[C@H](C)N)OC(=O)C[C@@H](CC(=O)O)C(=O)O	inactive; negative
CCNc1nc(N)nc(Cl)n1	inactive; negative
ClCC(Cl)Cl	inactive; negative
O=[N+]([O-])c1c2ccccc2cc2c3c(ccc12)[C@@H](O)[C@H](O)C=C3	active; positive
CCOC(=O)NNc1nncc2ccccc12	inactive; negative
C=CC(=O)OC(C)(C)C	inactive; negative
CCC(=O)N(c1ccc(Cl)c(Cl)c1)[C@@H]1CCC[C@H]1N(C)C	inactive; negative
O=C(O)C(=O)Nc1cccc(-c2nn[nH]n2)c1	inactive; negative

====

- System: CCRIS mutagenicity, Ames/micronucleus/aberration tests
- experimental-protocol: CCRIS mutagenicity studies
- assay-setup: Test System: AMES SALMONELLA TYPHIMURIUM; Strain/Indicator: TA102; Metabolic Activation: NONE; Method: STANDARD PLATE
Activity calls are given as the source filed them. How the calls were made is not given here.
Outcomes: true (1) = active, false (0) = inactive

smiles-record	target-desc	label-value
N#Cc1c(Cl)cccc1Cl	CCRIS mutagenicity, Ames/micronucleus/aberration tests	false (0)
CCCCOCCO	CCRIS mutagenicity, Ames/micronucleus/aberration tests	false (0)
CC1(C)C=C(C(=O)O)C(C)(C)N1[O]	CCRIS mutagenicity, Ames/micronucleus/aberration tests	false (0)
CC[C@@]1(O)C[C@H](O[C@H]2C[C@H](N(C)C)[C@H](O)[C@H](C)O2)c2c(cc3c(c2O)C(=O)c2c(O)ccc(O)c2C3=O)[C@H]1C(=O)OC	CCRIS mutagenicity, Ames/micronucleus/aberration tests	true (1)
COC1=CC(=O)c2c(nc(C)c3c4c([nH]c23)CCCC4)C1=O	CCRIS mutagenicity, Ames/micronucleus/aberration tests	false (0)
S=C1NCCN1	CCRIS mutagenicity, Ames/micronucleus/aberration tests	false (0)
O=C(O)c1cn(C2CC2)c2cc(N3CCNCC3)c(F)cc2c1=O	CCRIS mutagenicity, Ames/micronucleus/aberration tests	true (1)
CCCCCC/C=C\CCCCCCOC(C)=O	CCRIS mutagenicity, Ames/micronucleus/aberration tests	false (0)
COC(=O)c1cc2c(c3c1c([N+](=O)[O-])cc1c(OC)cccc13)OCO2	CCRIS mutagenicity, Ames/micronucleus/aberration tests	false (0)
O=c1[nH]c(=O)n([C@H]2C[C@H](O)[C@@H](CO)O2)cc1CO	CCRIS mutagenicity, Ames/micronucleus/aberration tests	true (1)
